// data source = PubChem BioAssay AID463183

- procedure_text: hepatocyte lipid droplet accumulation inhibitors, confirmation, imaging, AML12 mouse hepatocytes, single concentration, high-content (AID 463183);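 also: plate controls were DMSO with oleic acid for no effect and 5 µM Triacsin-C for full effect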
- test_context: BODIPY lipid droplet imaging, at 5.2 µM, droplets induced with 100 µM oleic acid; active compounds read high
The other results are listed elsewhere or left out.
test_readout: inhibition (%)
Unit % implied. Number only.

# get_value(readout='inhibition', item= Cc1c(C(=O)NCc2ccccc2)cnn1-c1ccccc1 ) 26.9

// inhibition lookup, key: CCOc1ccc(CCNC(=O)CCc2nnc3ccc(N4CCCC4)nn23)cc1OCC 100

// inhibition lookup, key: COc1ccc(OC)c(-c2csc(-c3cccs3)n2)c1 13.4

So what's the measured inhibition for this one? Cc1ccc(N2C(=O)C(NC(=O)c3c(F)cccc3F)(C(F)(F)F)C3=C2CC(C)(C)CC3=O)cc1 (stereo not given) 87.5

Reported inhibition for COc1cc(/C=N/NC(=O)Nc2ccccc2)ccc1OCCOc1ccccc1C : what is it? -21.6
